Biological target: T1, hK1 (human tissue kallikrein 1), recombinant (human, UniProt P06870 25-262)
T1 construct: Expressed in P. pastoris from KLK1 cDNA and purified; enzymatically active; also called KLK1; Recombinant (Pichia) Kallikrein
Assay: SPR
experimental.readout: kon (M⁻¹ s⁻¹)
Please state the figure in M⁻¹ s⁻¹; there is no need to write the unit.

Below: 2 binders and their reported kon.
INSERT INTO results (binder, numeric_readout) VALUES
  ('M0114-F04 (Fab, V domains shown) VH: EVQLLESGGGLVQPGGSLRLSCAASGFTFSHYYMAWVRQAPGKGLEWVSYISPSGGSTKYADSVKGRFTISRDNSKNTLYLQMNSLRAEDTAMYYCARGGGTGTFDIWGQGTMVTVSS VL: AQSELTQPASVSGSPGQSIAISCTGTSSDIGAYPFVSWYQQHPGKAPKLLIYGVTTRPFGVSDRFSGSKSGSTASLTISGLQAEDEADYYCSSYAGGRNLPYVFGTGTTVTVLG', 348000),
  ('M0101-E01 (Fab, V domains shown) VH: EVQLLESGGGLVQPGGSLRLSCAASGFTFSPYIMSWVRQAPGKGLEWVSSIVSSGGVTLYADSVKGRFTISRDNSKNTLYLQMNSLRAEDTAVYYCTKNINLRYDILTGYFDIWGQGTTVTVSS VL: DIQMTQSPSSVSASVGDRVTITCRAGQNIYYWLAWYQQKPGKAPQLLIYAASSLQSGVPSRFSGSGSGTDFTLTISSLQPEDFATYYCQQAKSFPVTFGGGTKVEIKR', 96600);

# evaluate next
Problem: Find the recorded kon belonging to M0123-E02 (Fab, V domains shown) VH: EVQLLESGGGLVQPGGSLRLSCAASGFTFSHYRMDWVRQAPGKGLEWVSGIYPSGGHTNYADSVKGRFTISRDNSKNTLYLQMNSLRAEDTAVYYCARDRGWYGADYWGQGTLVTVSS VL: AQSALTQPASVSGSPGQSITISCSGTSSDVGAYYHVSWYQQHPGKAPKLMIYDVSNRPSGVSNRFSGSKSGNTASLTISGLQAEDEADYYCSLYIGTSTPWVFGGGTKLTVLG and report it.
Solution: 229000

Hey, just so you know, these numbers are from patent US7329737.
